test: Microsomal stability in rat liver microsome assessed as half life measured upto 60 mins by LC-MS/MS analysis; format: ADME; details: liver microsomes
recordedEndpoint: half-life (min)
Give bare numbers, in min.

| compoundStructureString | unitText | obsValue |
| --- | --- | --- |
| CN1CCOc2cc(-c3ncc4c(ccn4CC4CCNCC4)c3-c3ccc(C#N)c(F)c3)ccc21 | min | 42 |

Now consider the entry below.
-- ask Form field: reported half-life of `CN1CCOc2cc(-c3ncc4c(ccn4CC4(C)CCNCC4)c3-c3ccc(C#N)c(F)c3)ccc21`
-- reply 36

---

system: MOLM-13; experiment: Antiproliferative activity against human MOLM-13 cells assessed as cell growth inhibition incubated for 7 days by WST-8 assay; format: functional, cell-based; details: MOLM-13, 168 h
Give measured IC50 for each item. Keep answers brief.
# output: number + unit

Below are worked cases with known answers.
| compoundStructureString | studyTarget | IC50 |
| --- | --- | --- |
| Cc1ccc(-c2ncc(OC[C@@H]3CCNC3)cc2-c2ccc(C#N)cc2)cc1 | MOLM-13 | 613 nM |
| CN1CCOc2cc(-c3ncc4c(ccn4CC4CCNCC4)c3-c3ccc(C#N)cc3)ccc21 | MOLM-13 | 170 nM |
| CN1CCOc2cc(-c3ncc4c(ccn4CC4(C)CCNCC4)c3-c3ccc(C#N)cc3)ccc21 | MOLM-13 | 130 nM |

Now consider the entry below.
-- ask Form field: reported IC50 of `Cn1ncc2cc(-c3ncc4c(ccn4CC4CCNCC4)c3-c3ccc(C#N)cc3)ccc21`
-- reply 62 nM

---

target: Lysine-specific histone demethylase 1A (Homo sapiens, UniProt O60341); assay: Inhibition of human recombinant LSD1 expressed in Escherichia coli using H3K4me2 peptide as substrate incubated for 60 mins by AlphaLISA assay
Give measured IC50 for each item. Keep answers brief.
Give bare numbers, in µM.

| compound | recordedEndpoint | unitText | obsValue |
| --- | --- | --- | --- |
| C/C(=N\NC(=O)c1cccc(S(=O)(=O)N2CCN(C)CC2)c1)c1cc(Cl)ccc1O [SECLIDEMSTAT] | IC50 | µM | 0.0262 |

Now consider the entry below.
-- ask Form field: reported IC50 of `Cn1cnc2cc(-c3ncc4c(ccn4CC4CCNCC4)c3-c3ccc(C#N)cc3)ccc21`
-- reply 0.0154

---

tested on: MV4-11; experiment: Antiproliferative activity against human MV4-11 cells assessed as cell growth inhibition incubated for 10 days by WST-8 assay; format: functional, cell-based; conditions: MV4-11, 240 h
Each entry falls in a class defined on IC50; the bands are low band = under 2 nM, middle band = from 2 nM up to 3 nM, high band = 3 nM and over

Worked examples, 5 compounds total:
| compoundStructureString | qualitativeLabel |
| --- | --- |
| Cn1ncc2cc(-c3ncc4c(ccn4CC4CCNCC4)c3-c3ccc(C#N)c(F)c3)ccc21 | middle band |
| Cc1ccc(-c2ncc(OC[C@@H]3CCNC3)cc2-c2ccc(C#N)cc2)cc1 | high band |
| CN1CCOc2cc(-c3ncc4c(ccn4CC4(C)CCNCC4)c3-c3ccc(C#N)c(F)c3)ccc21 | low band |
| Cn1ncc2cc(-c3ncc4c(ccn4CC4(C)CCNCC4)c3-c3ccc(C#N)cc3)ccc21 | high band |
| CN1CCOc2cc(-c3ncc4c(ccn4CC4CCNCC4)c3-c3ccc(C#N)cc3)ccc21 | middle band |

-- ask Each compound maps to one class by IC50. Which class for `CN1CCOc2cc(-c3ncc4c(ccn4CC4CCNCC4)c3-c3ccc(C#N)c(F)c3)ccc21` ?
-- reply low band

-- ask Each compound maps to one class by IC50. Which class for `CN1CCOc2cc(-c3ncc4c(ccn4CC4(C)CCNCC4)c3-c3ccc(C#N)cc3)ccc21` ?
-- reply low band

-- ask Each compound maps to one class by IC50. Which class for `Cn1ncc2cc(-c3ncc4c(ccn4CC4CCNCC4)c3-c3ccc(C#N)cc3)ccc21` ?
-- reply high band

-- ask Each compound maps to one class by IC50. Which class for `Cn1ncc2cc(-c3ncc4c(ccn4CC4(C)CCNCC4)c3-c3ccc(C#N)c(F)c3)ccc21` ?
-- reply low band

---

target: Lysine-specific histone demethylase 1A (Homo sapiens, UniProt O60341); experiment: Inhibition of human recombinant LSD1 expressed in Escherichia coli using H3K4me2 peptide as substrate incubated for 60 mins by AlphaLISA assay
# MET = IC50 below 20 nM (exclusive); NOT MET = IC50 at/above 20 nM

| molecule | qualitativeLabel |
| --- | --- |
| Cn1ncc2cc(-c3ncc4c(ccn4CC4CCNCC4)c3-c3ccc(C#N)cc3F)ccc21 | MET |

Kindly review the next molecule as well.
-- ask Find out if reported IC50 for `CN(C)c1ccc(-c2ncc3c(ccn3CC3CCNCC3)c2-c2ccc(C#N)cc2)cc1` is less than 20 nM
-- reply MET

---

molecular target: Lysine-specific histone demethylase 1A (Homo sapiens); assay: Inhibition of human recombinant LSD1 expressed in Escherichia coli using H3K4me2 peptide as substrate incubated for 60 mins by AlphaLISA assay
Give measured pIC50 for each item. Keep answers brief.
Answers are plain numbers, as −log10 of the molar value.

Below are worked cases with known answers.
| compoundStructureString | pIC50 |
| --- | --- |
| Cn1ncc2cc(-c3ncc4c(ccn4CC4CCNCC4)c3-c3ccc(C(N)=O)cc3)ccc21 | 5.20 |
| Cn1ccc2cc(-c3ncc4c(ccn4CC4CCNCC4)c3-c3ccc(C#N)cc3)cnc21 | 8.29 |
| CN1CCOc2cc(-c3ncc4c(ccn4CC4CCNCC4)c3-c3ccc(C#N)c(F)c3)ccc21 | 8.37 |
| Cn1ncc2cc(-c3ncc4c(ccn4CC4CCNCC4)c3-c3ccc(C#N)cc3)ccc21 | 7.89 |

Now consider the entry below.
-- ask Form field: reported pIC50 of `CS(=O)(=O)c1ccc(-c2ncc3c(ccn3CC3CCNCC3)c2-c2ccc(C#N)cc2)cc1`
-- reply 6.84

---

assay: Microsomal stability in human liver microsome assessed as half life measured upto 60 mins by LC-MS/MS analysis; type: ADME; settings: liver microsomes
recordedEndpoint: half-life

Below are worked cases with known answers.
| compoundStructureString | half-life |
| --- | --- |
| Cn1ncc2cc(-c3ncc4c(ccn4C[C@@H]4CCNC4)c3-c3ccc(C#N)c(F)c3)ccc21 | > 60 min |
| CN1CCOc2cc(-c3ncc4c(ccn4CC4(C)CCNCC4)c3-c3ccc(C#N)c(F)c3)ccc21 | < 10 min |
| Cn1ncc2cc(-c3ncc4c(ccn4CC4CCNCC4)c3-c3ccc(C#N)c(F)c3)ccc21 | > 60 min |
| CN1CCOc2cc(-c3ncc4c(ccn4CC4CCNCC4)c3-c3ccc(C#N)c(F)c3)ccc21 | < 10 min |

Now consider the entry below.
-- ask Form field: reported half-life of `Cn1ncc2cc(-c3ncc4c(ccn4CC4(C)CCNCC4)c3-c3ccc(C#N)c(F)c3)ccc21`
-- reply > 60 min

---

tested on: NCI-H1417; assay: Antiproliferative activity against human NCI-H1417 cells assessed as cell growth inhibition incubated for 10 days by WST-8 assay; assay type: functional, cell-based; conditions: NCI-H1417, 240 h
Each entry falls in a class defined on IC50; the bands are LOW (below 3 nM), MID (3 nM to below 9 nM), HIGH (9 nM or more)

Worked examples, 5 compounds total:
| compoundStructureString | qualitativeLabel |
| --- | --- |
| CN1CCOc2cc(-c3ncc4c(ccn4CC4(C)CCNCC4)c3-c3ccc(C#N)c(F)c3)ccc21 | LOW |
| CN1CCOc2cc(-c3ncc4c(ccn4CC4CCNCC4)c3-c3ccc(C#N)c(F)c3)ccc21 | LOW |
| CN1CCOc2cc(-c3ncc4c(ccn4CC4CCNCC4)c3-c3ccc(C#N)cc3)ccc21 | HIGH |
| Cn1ncc2cc(-c3ncc4c(ccn4CC4(C)CCNCC4)c3-c3ccc(C#N)c(F)c3)ccc21 | LOW |
| Cn1ncc2cc(-c3ncc4c(ccn4CC4CCNCC4)c3-c3ccc(C#N)c(F)c3)ccc21 | MID |

-- ask Each compound maps to one class by IC50. Which class for `Cc1ccc(-c2ncc(OC[C@@H]3CCNC3)cc2-c2ccc(C#N)cc2)cc1` ?
-- reply HIGH

---

Give measured IC50 for each item. Keep answers brief.
system: MOLM-13; test: Antiproliferative activity against human MOLM-13 cells assessed as cell growth inhibition incubated for 7 days by WST-8 assay; format: functional, cell-based; details: MOLM-13, 168 h
Answers are plain numbers, in nM.

| compoundStructureString | IC50 / nM |
| --- | --- |
| Cn1ncc2cc(-c3ncc4c(ccn4CC4CCNCC4)c3-c3ccc(C#N)c(F)c3)ccc21 | 316 |
| Cn1ncc2cc(-c3ncc4c(ccn4CC4(C)CCNCC4)c3-c3ccc(C#N)cc3)ccc21 | 126 |
| CN1CCOc2cc(-c3ncc4c(ccn4CC4(C)CCNCC4)c3-c3ccc(C#N)c(F)c3)ccc21 | 182 |
| Cn1ncc2cc(-c3ncc4c(ccn4CC4(C)CCNCC4)c3-c3ccc(C#N)c(F)c3)ccc21 | 31 |

Now consider the entry below.
-- ask Form field: reported IC50 of `CN1CCOc2cc(-c3ncc4c(ccn4CC4CCNCC4)c3-c3ccc(C#N)c(F)c3)ccc21`
-- reply 58
